target: human vasopressin V2 receptor subtype (Homo sapiens); construct: host or cells: CHO cells, stably transfected (pZeoSV vector); experiment: Vasopressin binding in CHO cell membranes expressing human vasopressin V2 subtype receptors ([3H]arginine vasopressin radioligand binding); conditions: 100 nM
Sequence (P30518 whole entry): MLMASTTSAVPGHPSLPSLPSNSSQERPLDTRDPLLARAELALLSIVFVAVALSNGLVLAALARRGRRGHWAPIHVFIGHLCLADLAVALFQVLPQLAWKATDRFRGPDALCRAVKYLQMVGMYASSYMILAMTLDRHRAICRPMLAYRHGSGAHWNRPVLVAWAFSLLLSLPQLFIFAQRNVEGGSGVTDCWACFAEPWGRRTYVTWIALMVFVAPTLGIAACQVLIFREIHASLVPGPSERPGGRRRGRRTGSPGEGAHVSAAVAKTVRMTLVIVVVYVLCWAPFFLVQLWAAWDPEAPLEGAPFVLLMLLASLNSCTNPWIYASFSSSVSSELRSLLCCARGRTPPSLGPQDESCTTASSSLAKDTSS

| molecule | assayed_system | inhibition at 0.1 µM |
| --- | --- | --- |
| CN(Cc1cccnc1)C(=O)c1ccc2n1Cc1ccccc1N(C(=O)c1ccc(-c3cccc4ccccc34)cc1Cl)C2 | human vasopressin V2 receptor subtype (Homo sapiens) | 23% |
| COc1ccccc1-c1ccc(C(=O)N2Cc3ccc(C(=O)N(C)CCc4ccccn4)n3Cc3ccccc32)cc1OC | human vasopressin V2 receptor subtype (Homo sapiens) | 13% |
| COc1cc(C(=O)N2Cc3ccc(C(=O)N(C)CCc4ccncc4)n3Cc3ccccc32)ccc1-c1ccccc1C | human vasopressin V2 receptor subtype (Homo sapiens) | -5% |
| COc1cccc(-c2ccc(C(=O)N3Cc4ccc(C(=O)N(C)CCc5ccncc5)n4Cc4ccccc43)cc2OC)c1 | human vasopressin V2 receptor subtype (Homo sapiens) | 35% |
| Cc1ccccc1-c1ccc(C(=O)N2Cc3ccc(C(=O)N4CCN(c5ccccn5)CC4)n3Cc3ccccc32)cc1 | human vasopressin V2 receptor subtype (Homo sapiens) | 10% |
| COc1cccc(-c2ccc(C(=O)N3Cc4ccc(C(=O)N5CCN(c6ccncc6)CC5)n4Cc4ccccc43)cc2C)c1 | human vasopressin V2 receptor subtype (Homo sapiens) | 8% |
| COc1cccc(-c2ccc(C(=O)N3Cc4ccc(C(=O)N5CCN(c6ccncc6)CC5)n4Cc4ccccc43)cc2OC)c1 | human vasopressin V2 receptor subtype (Homo sapiens) | 30% |
| Cc1cc(C(=O)N2Cc3ccc(C(=O)N4CCN(c5ccccn5)CC4)n3Cc3ccccc32)ccc1-c1ccccc1C(F)(F)F | human vasopressin V2 receptor subtype (Homo sapiens) | 4% |
| CN(CCc1ccccn1)C(=O)c1ccc2n1Cc1ccccc1N(C(=O)c1ccc(-c3cccc4ccccc34)cc1Cl)C2 | human vasopressin V2 receptor subtype (Homo sapiens) | 16% |
| COc1cccc(-c2cc(OC)c(C(=O)N3Cc4ccc(C(=O)NCc5ccncc5)n4Cc4ccccc43)cc2Cl)c1 | human vasopressin V2 receptor subtype (Homo sapiens) | -1% |
| Cc1cc(C(=O)N2Cc3ccc(C(=O)NCc4cccnc4)n3Cc3ccccc32)ccc1-c1ccccc1C(F)(F)F | human vasopressin V2 receptor subtype (Homo sapiens) | 9% |
| COc1cc(C(=O)N2Cc3ccc(C(=O)N(C)CCc4ccccn4)n3Cc3ccccc32)ccc1-c1cccc2ccccc12 | human vasopressin V2 receptor subtype (Homo sapiens) | 24% |
| COc1cccc(-c2cc(OC)c(C(=O)N3Cc4ccc(C(=O)NCc5ccccn5)n4Cc4ccccc43)cc2Cl)c1 | human vasopressin V2 receptor subtype (Homo sapiens) | 14% |
| Cc1cc(C(=O)N2Cc3ccc(C(=O)N4CCCCC4c4cccnc4)n3Cc3ccccc32)ccc1-c1ccccc1C(F)(F)F (stereo not drawn) | human vasopressin V2 receptor subtype (Homo sapiens) | 16% |
| COc1ccccc1-c1ccc(C(=O)N2Cc3ccc(C(=O)N4CCCCC4c4cccnc4)n3Cc3ccccc32)cc1C (stereo not drawn) | human vasopressin V2 receptor subtype (Homo sapiens) | 42% |
| Cc1ccccc1-c1ccc(C(=O)N2Cc3ccc(C(=O)NCc4ccncc4)n3Cc3ccccc32)cc1 | human vasopressin V2 receptor subtype (Homo sapiens) | 0% |
| Cc1ccccc1-c1ccc(C(=O)N2Cc3ccc(C(=O)N(C)CCc4ccccn4)n3Cc3ccccc32)cc1C | human vasopressin V2 receptor subtype (Homo sapiens) | 24% |
| COc1ccccc1-c1ccc(C(=O)N2Cc3ccc(C(=O)N4CCN(c5ccncc5)CC4)n3Cc3ccccc32)cc1 | human vasopressin V2 receptor subtype (Homo sapiens) | 63% |
| COc1ccccc1-c1ccc(C(=O)N2Cc3ccc(C(=O)NCc4ccncc4)n3Cc3ccccc32)cc1 | human vasopressin V2 receptor subtype (Homo sapiens) | 10% |
| COc1cccc(-c2ccc(C(=O)N3Cc4ccc(C(=O)NCc5cccnc5)n4Cc4ccccc43)cc2C)c1 | human vasopressin V2 receptor subtype (Homo sapiens) | 21% |
| Cc1ccccc1-c1ccc(C(=O)N2Cc3ccc(C(=O)N(C)Cc4cccnc4)n3Cc3ccccc32)cc1 | human vasopressin V2 receptor subtype (Homo sapiens) | 6% |
| COc1ccccc1-c1ccc(C(=O)N2Cc3ccc(C(=O)N4CCN(c5ccccn5)CC4)n3Cc3ccccc32)cc1 | human vasopressin V2 receptor subtype (Homo sapiens) | 8% |
| COc1cccc(-c2ccc(C(=O)N3Cc4ccc(C(=O)NCCc5ccccn5)n4Cc4ccccc43)cc2OC)c1 | human vasopressin V2 receptor subtype (Homo sapiens) | 4% |
| COc1cc(C(=O)N2Cc3ccc(C(=O)NCc4cccnc4)n3Cc3ccccc32)ccc1-c1cccc2ccccc12 | human vasopressin V2 receptor subtype (Homo sapiens) | 31% |

###

molecular target: human oxytocin receptor (Homo sapiens); construct: host or cells: CHO cells, stably transfected (pcDNA3.1 vector); test: Oxytocin binding in CHO cell membranes expressing human oxytocin receptors ([3H]oxytocin radioligand binding); settings: 100 nM, read-out: OT % inhibition @ 100 nM
Sequence (P30559 whole entry): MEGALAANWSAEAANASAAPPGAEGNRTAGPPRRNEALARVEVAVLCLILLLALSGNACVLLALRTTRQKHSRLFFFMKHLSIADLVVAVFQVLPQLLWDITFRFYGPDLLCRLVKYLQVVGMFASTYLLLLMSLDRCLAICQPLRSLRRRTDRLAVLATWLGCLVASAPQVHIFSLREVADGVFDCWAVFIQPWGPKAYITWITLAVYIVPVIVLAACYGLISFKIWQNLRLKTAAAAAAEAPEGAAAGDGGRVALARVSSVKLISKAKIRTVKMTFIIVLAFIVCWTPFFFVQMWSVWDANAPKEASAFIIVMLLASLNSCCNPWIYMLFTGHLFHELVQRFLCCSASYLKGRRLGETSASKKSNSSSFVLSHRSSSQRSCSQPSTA
The following compounds are listed with their measured inhibition at 0.1 µM values.

| compound_structure_string | inhibition at 0.1 µM [%] |
| --- | --- |
| COc1cccc(-c2ccc(C(=O)N3Cc4ccc(C(=O)N5CCN(c6ccncc6)CC5)n4Cc4ccccc43)cc2C)c1 | 66 |
| COc1cc(-c2ccccc2C)c(Cl)cc1C(=O)N1Cc2ccc(C(=O)NCCc3ccccn3)n2Cc2ccccc21 | 50 |
| Cc1ccccc1-c1ccc(C(=O)N2Cc3ccc(C(=O)N(C)CCc4ccccn4)n3Cc3ccccc32)cc1 | 93 |

###

molecular target: human vasopressin V1a receptor subtype (Homo sapiens, UniProt P37288); construct: host or cells: CHO cells, stably transfected (pZeoSV vector for the Thibonnier line); assay: Vasopressin binding in CHO cell membranes expressing human vasopressin V1a subtype receptors ([3H]Manning ligand radioligand binding); conditions: 100 nM
Sequence (P37288 whole entry): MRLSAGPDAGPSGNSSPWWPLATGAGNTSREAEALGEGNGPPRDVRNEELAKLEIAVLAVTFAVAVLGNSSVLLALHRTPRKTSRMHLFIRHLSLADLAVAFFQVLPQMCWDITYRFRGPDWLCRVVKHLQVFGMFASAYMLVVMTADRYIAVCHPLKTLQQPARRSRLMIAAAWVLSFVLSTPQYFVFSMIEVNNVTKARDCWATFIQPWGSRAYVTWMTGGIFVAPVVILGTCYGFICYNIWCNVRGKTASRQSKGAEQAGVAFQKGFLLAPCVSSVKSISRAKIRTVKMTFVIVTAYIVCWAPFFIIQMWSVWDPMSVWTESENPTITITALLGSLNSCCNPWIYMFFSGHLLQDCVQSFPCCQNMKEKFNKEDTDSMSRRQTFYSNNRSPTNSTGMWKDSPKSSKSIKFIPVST
endpoint: V1a % inhibition @ 100 nM (%)

| compound_structure_string | unit_text | reported_result |
| --- | --- | --- |
| Cc1cc(C(=O)N2Cc3ccc(C(=O)NCCc4ccccn4)n3Cc3ccccc32)ccc1-c1ccccc1C(F)(F)F | % | 6 |
| Cc1cc(C(=O)N2Cc3ccc(C(=O)N4CCN(c5ccncc5)CC4)n3Cc3ccccc32)ccc1-c1ccccc1C(F)(F)F | % | 9 |
| COc1cc(C(=O)N2Cc3ccc(C(=O)N4CCN(c5ccncc5)CC4)n3Cc3ccccc32)ccc1-c1ccccc1C | % | 62 |

###

molecular target: human vasopressin V1a receptor subtype (Homo sapiens, UniProt P37288); construct: host or cells: CHO cells, stably transfected (pZeoSV vector for the Thibonnier line); assay: Vasopressin binding in CHO cell membranes expressing human vasopressin V1a subtype receptors ([3H]Manning ligand radioligand binding); details: 100 nM

| compound_structure_string | inhibition at 0.1 µM [%] |
| --- | --- |
| COc1ccccc1-c1ccc(C(=O)N2Cc3ccc(C(=O)NCc4cccnc4)n3Cc3ccccc32)cc1 | 10 |
| COc1ccccc1-c1ccc(C(=O)N2Cc3ccc(C(=O)NCc4ccccn4)n3Cc3ccccc32)cc1 | 17 |
| COc1ccccc1-c1ccc(C(=O)N2Cc3ccc(C(=O)NCc4cccnc4)n3Cc3ccccc32)cc1C | -3 |
| COc1ccccc1-c1ccc(C(=O)N2Cc3ccc(C(=O)NCCc4ccccn4)n3Cc3ccccc32)cc1C | 1 |
| Cc1cc(C(=O)N2Cc3ccc(C(=O)N(C)CCc4ccncc4)n3Cc3ccccc32)ccc1-c1ccccc1C(F)(F)F | -1 |
| COc1ccccc1-c1ccc(C(=O)N2Cc3ccc(C(=O)NCc4ccccn4)n3Cc3ccccc32)cc1OC | 13 |
| COc1cc(-c2ccccc2C)c(Cl)cc1C(=O)N1Cc2ccc(C(=O)N3CCN(c4ccccn4)CC3)n2Cc2ccccc21 | -6 |
| COc1cc(C(=O)N2Cc3ccc(C(=O)N(C)CCc4ccccn4)n3Cc3ccccc32)ccc1-c1cccc2ccccc12 | 20 |
| COc1cc(-c2ccccc2C)c(Cl)cc1C(=O)N1Cc2ccc(C(=O)N3CCN(c4ccncc4)CC3)n2Cc2ccccc21 | 9 |
| COc1cccc(-c2ccc(C(=O)N3Cc4ccc(C(=O)N5CCN(c6ccncc6)CC5)n4Cc4ccccc43)cc2OC)c1 | 71 |
| Cc1cc(C(=O)N2Cc3ccc(C(=O)N4CCN(c5ccccn5)CC4)n3Cc3ccccc32)ccc1-c1ccccc1C(F)(F)F | 1 |
| COc1ccccc1-c1ccc(C(=O)N2Cc3ccc(C(=O)NCc4ccccn4)n3Cc3ccccc32)cc1C | 7 |
| COc1cccc(-c2cc(OC)c(C(=O)N3Cc4ccc(C(=O)N(C)CCc5ccncc5)n4Cc4ccccc43)cc2Cl)c1 | 19 |
| COc1cc(C(=O)N2Cc3ccc(C(=O)N(C)Cc4cccnc4)n3Cc3ccccc32)ccc1-c1cccc2ccccc12 | 7 |
| COc1ccccc1-c1ccc(C(=O)N2Cc3ccc(C(=O)N4CCN(c5ccccn5)CC4)n3Cc3ccccc32)cc1 | 6 |
| COc1cccc(-c2ccc(C(=O)N3Cc4ccc(C(=O)NCCc5ccccn5)n4Cc4ccccc43)cc2OC)c1 | 12 |
| COc1cc(-c2ccccc2C)c(Cl)cc1C(=O)N1Cc2ccc(C(=O)N(C)Cc3cccnc3)n2Cc2ccccc21 | 12 |
| COc1cc(C(=O)N2Cc3ccc(C(=O)N(C)CCc4ccncc4)n3Cc3ccccc32)ccc1-c1ccccc1C | 83 |
| Cc1ccccc1-c1ccc(C(=O)N2Cc3ccc(C(=O)NCCc4ccccn4)n3Cc3ccccc32)cc1 | 11 |
| COc1cc(C(=O)N2Cc3ccc(C(=O)NCc4cccnc4)n3Cc3ccccc32)ccc1-c1ccccc1C | 20 |

Reference for the values: patent US7064120B2
